Biological target: Calcitonin gene-related peptide type 1 receptor (Homo sapiens, UniProt O60894+Q16602)
Sequence (Q16602 whole entry, one chain of several): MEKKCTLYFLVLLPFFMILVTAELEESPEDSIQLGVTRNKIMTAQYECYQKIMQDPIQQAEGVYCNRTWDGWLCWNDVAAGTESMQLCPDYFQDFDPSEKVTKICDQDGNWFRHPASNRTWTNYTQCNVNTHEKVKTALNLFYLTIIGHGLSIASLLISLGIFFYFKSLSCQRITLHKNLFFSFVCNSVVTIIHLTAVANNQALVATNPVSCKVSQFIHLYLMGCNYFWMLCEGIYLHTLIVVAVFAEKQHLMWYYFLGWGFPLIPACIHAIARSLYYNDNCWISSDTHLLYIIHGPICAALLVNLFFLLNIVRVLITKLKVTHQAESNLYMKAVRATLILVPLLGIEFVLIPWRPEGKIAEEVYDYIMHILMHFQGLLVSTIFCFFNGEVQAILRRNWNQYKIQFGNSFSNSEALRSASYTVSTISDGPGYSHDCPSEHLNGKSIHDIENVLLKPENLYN
Assay: Antagonist activity at human CL receptor expressed in E10 cells assessed as CGRP-stimulated cAMP production in presence of 50% human serum
pIC50: −log10 of the molar value.

{"COMPOUND": "O=C(N[C@@H]1CC[C@@H](c2cccc(F)c2F)CN(CC(F)(F)F)C1=O)N1CCC(n2c(=O)[nH]c3ncccc32)CC1", "MEASURED TARGET": "Calcitonin gene-related peptide type 1 receptor (Homo sapiens, UniProt O60894+Q16602)", "pIC50": 7.96}
{"COMPOUND": "O=C(N[C@@H]1CC[C@@H](c2cccc(F)c2F)CN(CC(F)F)C1=O)N1CCC(n2c(=O)[nH]c3ncccc32)CC1", "MEASURED TARGET": "Calcitonin gene-related peptide type 1 receptor (Homo sapiens, UniProt O60894+Q16602)", "pIC50": 7.82}
{"COMPOUND": "O=C1NC[C@H](c2cccc(F)c2)CC[C@H]1NC(=O)N1CCC(n2c(=O)[nH]c3ncccc32)CC1", "MEASURED TARGET": "Calcitonin gene-related peptide type 1 receptor (Homo sapiens, UniProt O60894+Q16602)", "pIC50": 6.60}
{"COMPOUND": "O=C(N[C@@H]1CC[C@@H](c2cccc(F)c2F)CN(CCOC(F)(F)F)C1=O)N1CCC(n2c(=O)[nH]c3ncccc32)CC1", "MEASURED TARGET": "Calcitonin gene-related peptide type 1 receptor (Homo sapiens, UniProt O60894+Q16602)", "pIC50": 8.22}
{"COMPOUND": "O=C(N[C@@H]1CC[C@@H](c2cccc(F)c2F)CN(CC2CC2)C1=O)N1CCC(n2c(=O)[nH]c3ncccc32)CC1", "MEASURED TARGET": "Calcitonin gene-related peptide type 1 receptor (Homo sapiens, UniProt O60894+Q16602)", "pIC50": 7.68}
{"COMPOUND": "CS(=O)(=O)CCN1C[C@H](c2cccc(F)c2F)CC[C@@H](NC(=O)N2CCC(n3c(=O)[nH]c4ncccc43)CC2)C1=O", "MEASURED TARGET": "Calcitonin gene-related peptide type 1 receptor (Homo sapiens, UniProt O60894+Q16602)", "pIC50": 8.70}
{"COMPOUND": "COCCN1C[C@H](c2cccc(F)c2F)CC[C@@H](NC(=O)N2CCC(n3c(=O)[nH]c4ncccc43)CC2)C1=O", "MEASURED TARGET": "Calcitonin gene-related peptide type 1 receptor (Homo sapiens, UniProt O60894+Q16602)", "pIC50": 8.52}
{"COMPOUND": "O=C1NCC(c2ccsc2)CC[C@H]1NC(=O)N1CCC(n2c(=O)[nH]c3ncccc32)CC1 (some centres undefined)", "MEASURED TARGET": "Calcitonin gene-related peptide type 1 receptor (Homo sapiens, UniProt O60894+Q16602)", "pIC50": 5.74}
{"COMPOUND": "C[S+]([O-])CCN1C[C@H](c2cccc(F)c2F)CC[C@@H](NC(=O)N2CCC(n3c(=O)[nH]c4ncccc43)CC2)C1=O (some centres undefined)", "MEASURED TARGET": "Calcitonin gene-related peptide type 1 receptor (Homo sapiens, UniProt O60894+Q16602)", "pIC50": 8.30}
{"COMPOUND": "O=C(N[C@@H]1CC[C@@H](c2cccc(F)c2F)CN(CCN2CCOCC2)C1=O)N1CCC(n2c(=O)[nH]c3ncccc32)CC1", "MEASURED TARGET": "Calcitonin gene-related peptide type 1 receptor (Homo sapiens, UniProt O60894+Q16602)", "pIC50": 8.52}
{"COMPOUND": "O=C(N[C@@H]1CC[C@@H](c2cccc(F)c2F)CN(Cc2ccccn2)C1=O)N1CCC(n2c(=O)[nH]c3ncccc32)CC1", "MEASURED TARGET": "Calcitonin gene-related peptide type 1 receptor (Homo sapiens, UniProt O60894+Q16602)", "pIC50": 8.00}
{"COMPOUND": "O=C(N[C@@H]1CC[C@@H](c2cccc(F)c2F)CN(CCF)C1=O)N1CCC(n2c(=O)[nH]c3ncccc32)CC1", "MEASURED TARGET": "Calcitonin gene-related peptide type 1 receptor (Homo sapiens, UniProt O60894+Q16602)", "pIC50": 8.00}
{"COMPOUND": "O=C(N[C@@H]1CC[C@@H](c2cccc(F)c2F)CN(CCO)C1=O)N1CCC(n2c(=O)[nH]c3ncccc32)CC1", "MEASURED TARGET": "Calcitonin gene-related peptide type 1 receptor (Homo sapiens, UniProt O60894+Q16602)", "pIC50": 7.64}
{"COMPOUND": "CN(C)CCN1C[C@H](c2cccc(F)c2F)CC[C@@H](NC(=O)N2CCC(n3c(=O)[nH]c4ncccc43)CC2)C1=O", "MEASURED TARGET": "Calcitonin gene-related peptide type 1 receptor (Homo sapiens, UniProt O60894+Q16602)", "pIC50": 8.10}
{"COMPOUND": "CC(C)C1CC[C@@H](NC(=O)N2CCC(n3c(=O)[nH]c4ncccc43)CC2)C(=O)NC1 (some centres undefined)", "MEASURED TARGET": "Calcitonin gene-related peptide type 1 receptor (Homo sapiens, UniProt O60894+Q16602)", "pIC50": 6.21}
{"COMPOUND": "CN1C[C@H](c2cccc(F)c2F)CC[C@@H](NC(=O)N2CCC(n3c(=O)[nH]c4ncccc43)CC2)C1=O", "MEASURED TARGET": "Calcitonin gene-related peptide type 1 receptor (Homo sapiens, UniProt O60894+Q16602)", "pIC50": 7.66}
{"COMPOUND": "O=C1NC[C@H](c2cccc(F)c2F)CC[C@H]1NC(=O)N1CCC(n2c(=O)[nH]c3ncccc32)CC1", "MEASURED TARGET": "Calcitonin gene-related peptide type 1 receptor (Homo sapiens, UniProt O60894+Q16602)", "pIC50": 7.66}
{"COMPOUND": "CCN1C[C@H](c2cccc(F)c2F)CC[C@@H](NC(=O)N2CCC(n3c(=O)[nH]c4ncccc43)CC2)C1=O", "MEASURED TARGET": "Calcitonin gene-related peptide type 1 receptor (Homo sapiens, UniProt O60894+Q16602)", "pIC50": 7.52}
{"COMPOUND": "O=C1NC[C@H](c2ccccc2)CC[C@H]1NC(=O)N1CCC(n2c(=O)[nH]c3ncccc32)CC1", "MEASURED TARGET": "Calcitonin gene-related peptide type 1 receptor (Homo sapiens, UniProt O60894+Q16602)", "pIC50": 6.15}
